# assay_target: T1, ZFP SBS#985 (synthetic)
# T1 chain: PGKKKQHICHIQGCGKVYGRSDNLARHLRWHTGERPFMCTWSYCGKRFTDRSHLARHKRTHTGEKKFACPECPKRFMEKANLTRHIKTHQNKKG
# procedure_summary: EMSA
# conditions_used: tags: MBP fusion
reported_metric: Kd (nM)
Note: unit nM is implicit; provide only the numeric part.

-- ask Looking for the measured Kd of GACGGCGAG (dsDNA) DNA 1: GACGGCGAG DNA 2: CTCGCCGTC , can you help?
-- reply 0.965
